- targetOfAssay: Thyrotropin receptor (Homo sapiens) (UniProt P16473)
- Sequence (P16473 whole entry, looked up): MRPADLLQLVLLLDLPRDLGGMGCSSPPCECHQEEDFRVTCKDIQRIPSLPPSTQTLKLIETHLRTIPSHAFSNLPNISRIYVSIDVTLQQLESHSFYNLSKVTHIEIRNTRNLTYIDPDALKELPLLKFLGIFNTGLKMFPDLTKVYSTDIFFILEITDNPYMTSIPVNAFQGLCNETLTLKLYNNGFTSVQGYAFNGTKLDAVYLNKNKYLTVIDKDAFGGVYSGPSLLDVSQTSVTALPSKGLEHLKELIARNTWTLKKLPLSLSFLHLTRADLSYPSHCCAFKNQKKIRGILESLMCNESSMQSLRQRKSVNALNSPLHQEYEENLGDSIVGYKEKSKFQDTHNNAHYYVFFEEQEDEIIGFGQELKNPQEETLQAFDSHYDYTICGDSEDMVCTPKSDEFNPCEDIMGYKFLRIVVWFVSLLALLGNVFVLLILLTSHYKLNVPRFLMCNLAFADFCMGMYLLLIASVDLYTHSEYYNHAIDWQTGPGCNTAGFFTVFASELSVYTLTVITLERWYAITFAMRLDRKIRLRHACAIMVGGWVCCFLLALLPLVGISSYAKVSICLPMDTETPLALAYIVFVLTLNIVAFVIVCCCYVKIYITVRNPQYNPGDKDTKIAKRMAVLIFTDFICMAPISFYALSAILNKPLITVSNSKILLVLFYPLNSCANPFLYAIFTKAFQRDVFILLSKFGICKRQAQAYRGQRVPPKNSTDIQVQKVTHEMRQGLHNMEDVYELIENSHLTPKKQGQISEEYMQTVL
- assay: qHTS assay to identify small molecule agonists of the thyroid stimulating hormone receptor (TSHR) signaling pathway (AID 1224843); also: nearly all actives have a fitted effect of over 45% in size
- condition: TSHR-HEK293 cells, cAMP HTRF, agonist mode, 30 min; series mostly up to 92.4 µM
Records with an inconclusive call do not appear. The source made the active and inactive calls. Calls follow the shape of the full dose curve.
reportedMetric: outcome

In the examples that follow, each entry is paired with its recorded outcome.
O=C1CCCO1	inactive
Cn1c(-c2ccccc2)cc(-c2ccccc2)[n+]1C	inactive
COC(=O)Nc1nc2ccccc2[nH]1	inactive
Brc1ccc(Br)cc1	inactive
CC(C)Nc1nc(Cl)nc(NC(C)C)n1	inactive

// sample CCOP(=S)(OCC)OP(=S)(OCC)OCC , its outcome was inactive

// sample ClCc1ccccn1 , its outcome was inactive

// sample CC(C)=CC1C(C(=O)OCc2cccc(Oc3ccccc3)c2)C1(C)C (centres undefined) , its outcome was inactive

// sample CNC(=O)Oc1cccc2c1OC(C)(C)C2 , its outcome was inactive

// sample Cc1cc(Cl)ccc1N=CN(C)C , its outcome was inactive

// sample N#Cc1nn(-c2c(Cl)cc(C(F)(F)F)cc2Cl)c(N)c1S(=O)C(F)(F)F (centres undefined) , its outcome was inactive

// sample N#Cc1cccnc1 , its outcome was inactive

// sample COP(=S)(OC)Oc1ccc(Sc2ccc(OP(=S)(OC)OC)cc2)cc1 , its outcome was inactive

// sample C=CC(Cl)CCl (centres undefined) , its outcome was inactive
